Measured values drawn from the OligoGym collection for this set.

# Lookup of reported sensor-assay potency score (higher = more potent) keyed by entry
Target: MAN1C1
Assay: pooled miR-30 sensor sort-seq; sequence = guide strand; further: reference of the scale not given here
Conditions: shRNA
The answer should be a number; do not append a unit.

Some solved entries appear below for comparison.
TTCGATCTTCCTGAGGACCTTG: 0.041
TAGAAAGAAGCTCTGCTGCTTG: 0.252
TTGTGTGTGTGCAAACACTGGG: 0.0469
TTGAACATAGGGTCAGTGTTGG: -0.0716

Request: Report sensor-assay potency score (higher = more potent) for TTATTCGGAACACCTCTTCTCC please.
Result: -0.384

Request: Report sensor-assay potency score (higher = more potent) for TATGACTCGTGACACGTCTTGG please.
Result: -0.605

* * *

Biological target: FAM111A
Test: pooled miR-30 sensor sort-seq; sequence = guide strand
Conditions: shRNA
PARAMETER MEASURED: sensor-assay potency score (higher = more potent)
The answer should be a number; do not append a unit.

Some solved entries appear below for comparison.
TTCTAATTCATCAACTGGCTGG: 0.174
TTTCCAATCATCATTCTCCAGA: -0.625
TTGTTCTCTCAACACACAGGTG: -0.868

Could you now consider this next sequence?
Request: Report sensor-assay potency score (higher = more potent) for TTTCCTTGTCTTTTAGCTCTTC please.
Result: 0.0612

* * *

Biological target: TDRKH
Assay: pooled miR-30 sensor sort-seq; sequence = guide strand
Details: shRNA
# Lookup of reported sensor-assay potency score (higher = more potent) keyed by entry
The answer should be a number; do not append a unit.

Some solved entries appear below for comparison.
ATGTCCTTCAACATGTCTGGGA: -0.897
TTTAATATTGGCTCCTTGCCGG: -0.28

Request: Report sensor-assay potency score (higher = more potent) for TTGGTCTCAGTGAGCAACGTGC please.
Result: -0.522

Request: Report sensor-assay potency score (higher = more potent) for TTAATATTGGCTCCTTGCCGGC please.
Result: -1.54

* * *

Molecular target: COG2
Assay: pooled miR-30 sensor sort-seq; sequence = guide strand
Settings: shRNA
# Lookup of reported sensor-assay potency score (higher = more potent) keyed by entry
The answer should be a number; do not append a unit.

TTGAACAGCATGAAACTGTAAC: -0.748

Request: Report sensor-assay potency score (higher = more potent) for TTAATCTCTTTACACTAGCCTG please.
Result: -1.22

Request: Report sensor-assay potency score (higher = more potent) for TTGACAAACACAGAGTATCGTG please.
Result: -0.356

Request: Report sensor-assay potency score (higher = more potent) for TCATCTGACCAACACCTCCTAA please.
Result: -1.05

* * *

Biological target: C6orf105
Assay: pooled miR-30 sensor sort-seq; sequence = guide strand
Details: shRNA
Classification field: label 1 = sensor-assay potency score (higher = more potent) at or over -0.5; label 0 = sensor-assay potency score (higher = more potent) under -0.5.

TAAGTATCACTCTCTGTCCCTC: label 1
TCTTTTCAGCACATCATCCAGG: label 1
TTAAGTATCACTCTCTGTCCCT: label 1
TTCAGCACATCATCCAGGCAGG: label 0
TTAAATTTAAGTATCACTCTCT: label 1

Request: # check: sensor-assay potency score (higher = more potent) of TTCTTTTCAGCACATCATCCAG is greater than or equal to -0.5
Result: label 0

Request: # check: sensor-assay potency score (higher = more potent) of TATCACTCTCTGTCCCTCCTAC is greater than or equal to -0.5
Result: label 1
